- assay system: ATP-dependent translocase ABCB1 (Homo sapiens)
- Sequence (P08183 whole entry): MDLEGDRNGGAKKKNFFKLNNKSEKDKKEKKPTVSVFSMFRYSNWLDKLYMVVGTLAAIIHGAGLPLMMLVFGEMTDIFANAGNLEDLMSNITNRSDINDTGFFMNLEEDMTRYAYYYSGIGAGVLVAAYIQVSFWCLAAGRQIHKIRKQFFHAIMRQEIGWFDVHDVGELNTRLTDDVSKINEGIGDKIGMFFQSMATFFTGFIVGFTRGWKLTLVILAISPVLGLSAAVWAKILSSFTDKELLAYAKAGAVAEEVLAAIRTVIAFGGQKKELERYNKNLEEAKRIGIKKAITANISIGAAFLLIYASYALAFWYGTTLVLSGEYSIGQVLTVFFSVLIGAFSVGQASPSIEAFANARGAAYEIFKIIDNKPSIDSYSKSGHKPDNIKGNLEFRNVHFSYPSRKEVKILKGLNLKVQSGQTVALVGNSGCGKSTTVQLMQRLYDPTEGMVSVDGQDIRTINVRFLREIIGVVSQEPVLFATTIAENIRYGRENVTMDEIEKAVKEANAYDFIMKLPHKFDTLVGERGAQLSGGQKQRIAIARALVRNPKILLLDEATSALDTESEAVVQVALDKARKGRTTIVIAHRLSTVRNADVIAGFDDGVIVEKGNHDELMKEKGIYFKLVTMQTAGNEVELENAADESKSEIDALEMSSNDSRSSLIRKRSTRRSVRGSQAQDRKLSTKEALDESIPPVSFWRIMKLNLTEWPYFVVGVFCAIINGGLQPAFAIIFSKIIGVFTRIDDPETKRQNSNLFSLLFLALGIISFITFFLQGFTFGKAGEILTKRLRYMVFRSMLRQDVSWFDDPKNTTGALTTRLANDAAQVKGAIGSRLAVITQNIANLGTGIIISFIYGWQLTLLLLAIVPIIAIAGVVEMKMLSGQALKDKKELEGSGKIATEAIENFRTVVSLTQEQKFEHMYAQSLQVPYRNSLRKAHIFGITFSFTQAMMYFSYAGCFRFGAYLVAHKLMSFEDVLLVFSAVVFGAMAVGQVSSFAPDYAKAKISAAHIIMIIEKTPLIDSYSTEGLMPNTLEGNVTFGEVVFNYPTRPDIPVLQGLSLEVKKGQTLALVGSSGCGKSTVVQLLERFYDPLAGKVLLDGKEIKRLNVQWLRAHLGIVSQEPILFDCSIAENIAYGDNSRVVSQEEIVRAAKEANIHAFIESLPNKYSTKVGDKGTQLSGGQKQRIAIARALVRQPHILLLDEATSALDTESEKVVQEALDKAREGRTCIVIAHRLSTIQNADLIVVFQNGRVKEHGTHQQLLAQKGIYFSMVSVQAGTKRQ
- method notes: Inhibition of human P-gp1 transfected in mouse NIH3T3 cells assessed as inhibition of Calcein-AM efflux measured after 30 mins by FACS Calibur cytometric analysis
- Type: cell-based
- condition info: nih3t3, 0.5 h
test readout: inhibition (INH)

Some molecules with known inhibition (INH) results, for comparison:
{"columns": ["molecule", "assay system", "test readout", "meas value"],
 "data": [
  ["COc1cccc(CCn2c3c(c4c(OCCCCOc5ccc6c(c5)-c5c(c7c(n5CCc5ccccc5)CC(C)CC7=O)C6=O)cccc42)C(=O)c2ccccc2-3)c1 (stereo not drawn)", "ATP-dependent translocase ABCB1 (Homo sapiens)", "inhibition (INH)", "Not Active"],
  ["COc1cccc(CCn2c3c(c4c(OCCCCCCCCOc5ccc6c(c5)-c5c(c7c(n5CCc5ccccc5)CC(C)CC7=O)C6=O)cccc42)C(=O)c2ccccc2-3)c1 (stereo not drawn)", "ATP-dependent translocase ABCB1 (Homo sapiens)", "inhibition (INH)", "Not Active"],
  ["COc1cccc(CCn2c3c(c4c(OCCCCCCOc5ccc6c(c5)-c5c(c7c(n5CCc5ccccc5)CC(C)CC7=O)C6=O)cccc42)C(=O)c2ccccc2-3)c1 (stereo not drawn)", "ATP-dependent translocase ABCB1 (Homo sapiens)", "inhibition (INH)", "Not Active"],
  ["COc1cccc(CCn2c3c(c4c(OCCOc5cccc6c5c5c(n6CCc6cccc(OC)c6)-c6ccccc6C5=O)cccc42)C(=O)c2ccccc2-3)c1", "ATP-dependent translocase ABCB1 (Homo sapiens)", "inhibition (INH)", "Not Active"],
  ["COc1cccc(CCn2c3c(c4c(OCCCCCCOc5cccc6c5c5c(n6CCc6cccc(OC)c6)-c6ccccc6C5=O)cccc42)C(=O)c2ccccc2-3)c1", "ATP-dependent translocase ABCB1 (Homo sapiens)", "inhibition (INH)", "Not Active"]
]}

Task: Report measured inhibition (INH) on ATP-dependent translocase ABCB1 (Homo sapiens); entry: CC1CC(=O)c2c3c(n(CCc4ccccc4)c2C1)-c1cc(OCCOc2ccc4c(c2)-c2c(c5c(n2CCc2ccccc2)CC(C)CC5=O)C4=O)ccc1C3=O (stereo not drawn)
Output: Not Active

Task: Report measured inhibition (INH) on ATP-dependent translocase ABCB1 (Homo sapiens); entry: COc1cccc(CCn2c3c(c4c(OCCCCOc5cccc6c5c5c(n6CCc6cccc(OC)c6)-c6ccccc6C5=O)cccc42)C(=O)c2ccccc2-3)c1
Output: Not Active

Task: Report measured inhibition (INH) on ATP-dependent translocase ABCB1 (Homo sapiens); entry: CC1CC(=O)c2c3c(n(CCc4ccccc4)c2C1)-c1cc(OCCCCOc2ccc4c(c2)-c2c(c5c(n2CCc2ccccc2)CC(C)CC5=O)C4=O)ccc1C3=O (stereo not drawn)
Output: Not Active

* * *

- assay system: Broad substrate specificity ATP-binding cassette transporter ABCG2 (Homo sapiens, UniProt Q9UNQ0)
- Sequence (Q9UNQ0 whole entry): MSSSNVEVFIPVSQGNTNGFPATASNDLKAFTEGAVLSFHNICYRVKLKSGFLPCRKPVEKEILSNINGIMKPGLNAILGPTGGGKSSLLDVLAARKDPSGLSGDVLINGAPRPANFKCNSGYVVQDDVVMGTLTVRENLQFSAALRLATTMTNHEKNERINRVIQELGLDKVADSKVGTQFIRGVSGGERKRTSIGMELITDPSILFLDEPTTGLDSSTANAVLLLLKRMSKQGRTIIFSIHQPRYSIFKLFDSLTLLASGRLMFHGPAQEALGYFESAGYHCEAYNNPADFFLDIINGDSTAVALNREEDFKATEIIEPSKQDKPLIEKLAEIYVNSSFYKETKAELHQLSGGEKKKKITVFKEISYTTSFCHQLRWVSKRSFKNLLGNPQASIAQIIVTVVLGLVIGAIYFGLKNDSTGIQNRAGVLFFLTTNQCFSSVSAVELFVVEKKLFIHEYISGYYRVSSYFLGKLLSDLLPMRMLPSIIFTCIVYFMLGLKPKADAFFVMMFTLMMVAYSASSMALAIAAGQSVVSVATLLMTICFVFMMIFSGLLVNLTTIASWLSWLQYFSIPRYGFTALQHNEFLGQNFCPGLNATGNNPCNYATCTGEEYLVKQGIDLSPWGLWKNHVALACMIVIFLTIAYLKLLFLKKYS
- method notes: Mixed inhibition of human ABCG2 transfected in human HEK293 cells assessed as Ki1 for inhibition of Hoechst33342 efflux measured after 30 mins by FACS Calibur cytometric analysis
- Type: cell-based
test readout: Ki (nM)
Hi! Could you send only the number? It should be in nM, unit omitted.

Task: Specify Ki for COc1cccc(CCn2c3c(c4c(OCCCCOc5cccc6c5c5c(n6CCc6cccc(OC)c6)-c6ccccc6C5=O)cccc42)C(=O)c2ccccc2-3)c1 and stop.
Output: 113
